The measurements presented in this section are drawn from paper PMC7508416.

- REPORTED_CONDITIONS: 1 μM; s9
Each entry below carries its reported Percentage of Initial Parent Administration (Mean ± Std Dev): parent compound.
Quick note: give the figure in %, leave out the unit.

[[record]]
molecule = "CC(C)c1ccccc1OP(=O)(Oc1ccccc1)Oc1ccccc1 [2IPPDPP, 2-isopropylphenyl diphenyl phosphate]"
numeric_value = 56


Using the record for CC(C)(C)c1ccc(OP(=O)(Oc2ccccc2)Oc2ccccc2)cc1 [4tBPDPP, 4-tert-butylphenyl diphenyl phosphate] , state its measured Percentage of Initial Parent Administration (Mean ± Std Dev): parent compound.
59

Using the record for CC(C)c1ccc(OP(=O)(Oc2ccccc2)Oc2ccccc2)cc1 [4IPPDPP, 4-isopropylphenyl diphenyl phosphate] , state its measured Percentage of Initial Parent Administration (Mean ± Std Dev): parent compound.
27

Using the record for O=P(Oc1ccccc1)(Oc1ccccc1)Oc1ccccc1 [TPHP, triphenyl phosphate, reference compound] , state its measured Percentage of Initial Parent Administration (Mean ± Std Dev): parent compound.
31
